Test: Sphericity from SEM images (ImageJ)
Format: physicochemical
Conditions: SEM image analysis, mean of particles
Where a name gives a salt, the structure may show the parent alone.
testReadout: sphericity of the spherulite
Answers are plain numbers.

1) N[C@@H](CCC(=O)N[C@@H](CS)C(=O)NCC(=O)O)C(=O)O ... 0.85

Provide reported sphericity of the spherulite for each item, in the same order as listed.
1. Cc1cc(N2CCN([C@@H]3CN[C@H](C(=O)N4CCSC4)C3)CC2)n(-c2ccccc2)n1 [Example 22, teneligliptin hydrobromide hydrate]
2. CC[C@H]1OC(=O)[C@H](C)[C@@H](O[C@H]2C[C@@](C)(OC)[C@@H](O)[C@H](C)O2)[C@H](C)[C@@H](O[C@@H]2O[C@H](C)C[C@H](N(C)C)[C@H]2O)[C@](C)(OC)C[C@@H](C)C(=O)[C@H](C)[C@@H](O)[C@]1(C)O

1: 0.93; 2: 0.87

Provide reported sphericity of the spherulite for each item, in the same order as listed.
1. N#C[C@@H]1CCCN1C(=O)CNC12CC3CC(CC(O)(C3)C1)C2
2. CN(C)CC/C=C1/c2ccccc2COc2ccc(CC(=O)O)cc21
3. O=C(O)CCCN1CCC(O[C@@H](c2ccc(Cl)cc2)c2ccccn2)CC1.O=S(=O)(O)c1ccccc1 [Example 30, bepotastine besilate]

1. 0.99
2. 0.96
3. 0.98

###

Experiment: Sphericity from SEM images (ImageJ)
Type: physicochemical
Design: key: 1 = true sphere; closer to 1 = more spherical; mean of ≥5 particles
Details: SEM image analysis, mean of particles; trihydrate
Record form. Attribute: sphericity of the spherulite. Fill in for each entry.
Answers are plain numbers.

1) COc1ccc2[n-]c([S@@+]([O-])Cc3ncc(C)c(OC)c3C)nc2c1.COc1ccc2[n-]c([S@@+]([O-])Cc3ncc(C)c(OC)c3C)nc2c1.O.O.O.[Mg+2] [Example 7, esomeprazole magnesium trihydrate] ... 0.97

Kindly consider the entry below.
Could you share which sphericity of the spherulite value was measured for COc1ccc2[n-]c([S@@+]([O-])Cc3ncc(C)c(OC)c3C)nc2c1.COc1ccc2[n-]c([S@@+]([O-])Cc3ncc(C)c(OC)c3C)nc2c1.O.O.O.[Mg+2] [Example 5, esomeprazole magnesium trihydrate] ?
0.89

###

Record form. Attribute: sphericity of the spherulite. Fill in for each entry.
Assay: Sphericity from SEM images (ImageJ)
Type: physicochemical
Conditions: SEM image analysis, mean of particles
Where a name gives a salt, the structure may show the parent alone.
Give bare numbers.

1) COc1cccc(C2(O)CCCCC2CN(C)C)c1 (centres unmarked) [Example 29, tramadol hydrochloride] ... 0.90

Provide reported sphericity of the spherulite for each item, in the same order as listed.
1. Cc1ccccc1C(=O)Nc1ccc(C(=O)N2CCCC(O)c3cc(Cl)ccc32)c(C)c1 (centres unmarked) [Example 28, tolvaptan]
2. CCCCCCOC(=O)N=C(N)c1ccc(NCc2nc3cc(C(=O)N(CCC(=O)OCC)c4ccccn4)ccc3n2C)cc1 [Example 24, dabigatran etexilate methanesulfonate]
3. Cc1cccc(C)c1NC(=O)CC12CCCN1CCC2.Cl [Example 25, pilsicainide hydrochloride anhydride]
4. Cc1c(OCC(F)(F)F)ccnc1C[S+]([O-])c1nc2ccccc2[nH]1 (centres unmarked) [Example 11, lansoprazole]

[0.94, 0.95, 0.69, 0.94]

###

Assay: Sphericity from SEM images (ImageJ)
Format: physicochemical
Conditions: SEM image analysis, mean of particles
Structures can show the parent of a compound that is named as a salt.
Record form. Attribute: sphericity of the spherulite. Fill in for each entry.

1. Cn1c(=O)c2[nH]cnc2n(C)c1=O.O.O.O.O.[Mg] [Example 26, theophylline magnesium salt tetrahydrate] ... 0.95±0.02
2. NC(CCC(=O)O)C(=O)O (racemic) ... 0.95±0.03

Provide reported sphericity of the spherulite for each item, in the same order as listed.
1. COC(=O)[C@H](c1ccccc1Cl)N1CCc2sccc2C1 [Example 16, clopidogrel sulfate]
2. CN1CCC(=C2c3ccccc3CC(=O)c3sccc32)CC1 [Example 1, ketotifen fumarate]

["0.96±0.02", "0.78±0.02"]
